tested on: OVCAR-5 ovarian; test: NCI tumour cell line growth inhibition, 48 h; in the data active = GI50 below about 0.43 µM; inactive = the rest
The categories you may choose from are active, inactive

Ask: What classification did C=CC(=O)N1CCC(C2CCNc3c(C(N)=O)c(-c4ccc(Oc5ccccc5)cc4)nn32)CC1 (configuration not stated) end up with in this test?
Result: inactive

Ask: What classification did CC1(C)OCCn2c1nc1c(N3CCOCC3)nc(-c3cnc(N)nc3)nc12 end up with in this test?
Result: active

Ask: What classification did NS(=O)(=O)c1ccc(N(/C=C/C(=O)C(F)(F)F)CC(=O)c2ccc(Cl)cc2)cc1 end up with in this test?
Result: inactive

Ask: What classification did Ic1ccc(-n2nnnc2-c2cnoc2-c2ccccc2)cc1 end up with in this test?
Result: inactive

Ask: What classification did COc1ccccc1N1CCN(CCCn2c(=O)c3c(OC)nc(C)cc3c(=O)n2-c2ccccc2)CC1 end up with in this test?
Result: inactive

Ask: What classification did CCOc1ccc2nc(S/C(=C/C=C(C#N)C#N)c3ccc(C)cc3)sc2c1 end up with in this test?
Result: inactive

Ask: What classification did C=CCCCCCCCCCCC1(O)C=CC2=[N+](CCCCCN=C(N)N)CCCN21 (configuration not stated) end up with in this test?
Result: inactive

Ask: What classification did COc1cc(-c2nn(-c3cccc(NC(=O)Nc4ccc(Cl)c(Cl)c4)c3)cc2-c2ccncc2)ccc1Cl end up with in this test?
Result: inactive

Ask: What classification did CC12CCC3C(CCC4=CC(O)CCC43C=O)C1(O)CCC2c1ccc(=O)oc1 (configuration not stated) end up with in this test?
Result: active

Ask: What classification did Cc1csc(Nc2nc(-c3cccc(Br)c3)nc(C(Cl)(Cl)Cl)n2)n1 end up with in this test?
Result: inactive

Ask: What classification did COc1cc(C2c3cc4c(cc3C(O)C(CO)C2CO)OCO4)cc(OC)c1OC (configuration not stated) end up with in this test?
Result: inactive

Ask: What classification did C[C@H]1Oc2cc(cnc2N)-c2c(nn(C)c2C#N)CN(C)C(=O)c2ccc(F)cc21 end up with in this test?
Result: inactive
